assay: Toxicity in ip dosed rat
Format: organism-based
experimental-setup: in vivo
measured-parameter: LD50 (mg/kg)
Give a bare numeral; the unit mg/kg is implied.

Problem: Could you share which LD50 value was measured for `C=C1CC[C@@H]2[C@@](C)(CCC(C)(C)O)[C@@H](O)CC[C@@]2(C)[C@H]1Cc1c(OC)oc(C)c(C(=O)OC)c1=O` ?
Result: 16

====

experimental-system: Potassium voltage-gated channel subfamily A member 3 (Homo sapiens, UniProt P22001)
Sequence (P22001 whole entry): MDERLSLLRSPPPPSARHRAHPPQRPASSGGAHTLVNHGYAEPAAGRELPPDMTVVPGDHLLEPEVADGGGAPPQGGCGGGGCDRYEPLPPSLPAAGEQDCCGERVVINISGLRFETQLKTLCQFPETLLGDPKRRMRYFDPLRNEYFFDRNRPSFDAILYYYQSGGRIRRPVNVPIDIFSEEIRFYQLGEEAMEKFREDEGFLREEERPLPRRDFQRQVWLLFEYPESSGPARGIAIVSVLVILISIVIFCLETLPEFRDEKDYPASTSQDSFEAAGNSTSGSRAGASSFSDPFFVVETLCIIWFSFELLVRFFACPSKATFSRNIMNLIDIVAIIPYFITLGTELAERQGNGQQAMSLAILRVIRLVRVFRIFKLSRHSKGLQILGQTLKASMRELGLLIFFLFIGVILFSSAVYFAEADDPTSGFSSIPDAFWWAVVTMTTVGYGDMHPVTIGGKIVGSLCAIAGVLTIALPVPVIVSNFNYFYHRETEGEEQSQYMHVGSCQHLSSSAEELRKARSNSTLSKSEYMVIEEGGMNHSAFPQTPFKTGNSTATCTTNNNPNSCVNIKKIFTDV
assay: Antagonist activity at voltage-gated Kv1.3 potassium channel
Type: functional
measured-parameter: pIC50
Just so you know, pIC50 here is -log10 of the concentration in molar units; reply with that number alone.

Problem: Could you share which pIC50 value was measured for C=C1CC[C@H]2[C@](C)(CCC=C(C)C)[C@@H](OC(C)=O)CC[C@]2(C)[C@@H]1Cc1c(OC)oc(C)c(C)c1=O [NALANTHALIDE] ?
Result: 5.41

// data source = ChEMBL document CHEMBL1154515
